Each entry below carries its recorded Biodistribution: Pancreas.
assay-method-text: In vivo biodistribution in mice
Set-up: species or system normal CD-1 male mice
experimental-context: iv, 60 min (1 hr) post injection
Only the number, expressed in % dose/g, is required.

Examples from the recorded data:
| compound | reported |
| --- | --- |
| O=C([O-])CN(CCN(CC(=O)[O-])Cc1cc(CCC(=O)NC(P(=O)(O)O)P(=O)(O)O)ccc1[O-])Cc1cc(CCC(=O)NC2C(O)OC(CO)C(O)C2O)ccc1[O-].[68Ga+3] (centres unmarked) [[^68Ga]1b] | 0.11 |
| O=C([O-])CN(CCN(CC(=O)[O-])Cc1cc(CCC(=O)NC(P(=O)(O)O)P(=O)(O)O)ccc1[O-])Cc1cc(CCC(=O)NC(P(=O)(O)O)P(=O)(O)O)ccc1[O-].[68Ga+3] [[^68Ga]2] | 0.27 |
| O=C([O-])CN(CCN(CC(=O)[O-])Cc1cc(CCC(=O)NC(P(=O)(O)O)P(=O)(O)O)ccc1[O-])Cc1cc(CCC(=O)NCCCNC(=O)CCc2ccc(O)c(CN(CCN(CC(=O)O)Cc3cc(CCC(=O)NC(P(=O)(O)O)P(=O)(O)O)ccc3O)CC(=O)O)c2)ccc1[O-].[68Ga+3] [[^68Ga]3] | 0.26 |
| O=C([O-])CN(CCN(CC(=O)[O-])Cc1cc(CCC(=O)N[C@@H](CCC(=O)O)C(=O)O)ccc1[O-])Cc1cc(CCC(=O)NC(P(=O)(O)O)P(=O)(O)O)ccc1[O-].[68Ga+3] [[^68Ga]1f] | 0.08 |

Now for a further compound.
Supply recorded Biodistribution: Pancreas for [18F-].[Na+] [[^18F]NaF, reference compound] here.
0.07

---

assay-method-text: In vivo biodistribution in mice
Parameters: species or system normal CD-1 male mice
experimental-context: iv, 120 min
Binary call on bone to blood ratio: Yes from 80 upward, No beneath that.

Could you please find out whether [18F-].[Na+] [[^18F]NaF, reference compound] has bone to blood ratio that meets 80 or exceeds it?
Yes

Could you please find out whether O=C([O-])CN(CCN(CC(=O)[O-])Cc1cc(CCC(=O)NC(P(=O)(O)O)P(=O)(O)O)ccc1[O-])Cc1cc(CCC(=O)NC(P(=O)(O)O)P(=O)(O)O)ccc1[O-].[68Ga+3] [[^68Ga]2] has bone to blood ratio that meets 80 or exceeds it?
No

Could you please find out whether O=C([O-])CN(CCN(CC(=O)[O-])Cc1cc(CCC(=O)NC(P(=O)(O)O)P(=O)(O)O)ccc1[O-])Cc1cc(CCC(=O)NCCCCCC(=O)NCCCC[C@H](NC(=O)N[C@@H](CCC(=O)O)C(=O)O)C(=O)O)ccc1[O-].[68Ga+3] [[^68Ga]1g] has bone to blood ratio that meets 80 or exceeds it?
Yes

Could you please find out whether O=C([O-])CN(CCN(CC(=O)[O-])Cc1cc(CCC(=O)NC(P(=O)(O)O)P(=O)(O)O)ccc1[O-])Cc1cc(CCC(=O)NCCCNC(=O)CCc2ccc(O)c(CN(CCN(CC(=O)O)Cc3cc(CCC(=O)NC(P(=O)(O)O)P(=O)(O)O)ccc3O)CC(=O)O)c2)ccc1[O-].[68Ga+3] [[^68Ga]3] has bone to blood ratio that meets 80 or exceeds it?
No

Could you please find out whether O=C([O-])CN(CCN(CC(=O)[O-])Cc1cc(CCC(=O)NC(P(=O)(O)O)P(=O)(O)O)ccc1[O-])Cc1cc(CCC(=O)NCCNC(=O)CN2CCN(CC(=O)O)CCN(CC(=O)O)CCN(CC(=O)O)CC2)ccc1[O-].[68Ga+3] [[^68Ga]1h] has bone to blood ratio that meets 80 or exceeds it?
Yes
